test system: NCI-H522 lung; assay: NCI tumour cell line growth inhibition, 48 h; in the data active = GI50 below about 0.43 µM; inactive = the rest
Use one of these outcomes when replying: active, inactive

# fetch the recorded call for Nc1no[n+]([O-])c1-c1nnc2c(n1)-c1ccccc1C2=O here
inactive

Another molecule: CCN(CC)CCCNc1cc(OC)c(OC)c2cccnc12
inactive

Same again, this time with Nc1nc(N)c(-c2ccc(Cl)c(Cl)c2)c(CP(Cl)(Cl)(Cl)Br)n1
inactive

Follow-up item: CN(C)C/C=C/C(=O)Nc1cc2c(Nc3cccc(Cl)c3F)ncnc2cc1OCCOC(F)F
active

Next record, please: COc1ccc(NC(=O)c2cccc(C3CCc4c(cc(OC)c(OC)c4OC)O3)c2)cc1 (stereo unspecified)
inactive

Same lookup for CCOC(=O)c1cc2c(n1Cc1cc(OC)cc(OC)c1)-c1oncc1CC2 , please.
active

Next entry: O=c1[nH]c(=O)n(C2OC(CO)C(O)C2O)cc1F (stereo unspecified)
active

What about this molecule? COc1ccc2nc3ccccc3c(NCc3ccccc3)c2c1
inactive

Continue with O=C(COc1cccc(/C=C2\Oc3ccc4ccccc4c3C2=O)c1)c1ccc([N+](=O)[O-])cc1
inactive

Next molecule up: CC[Si](CC)(CC)OC1[C@@H](O[Si](CC)(CC)CC)[C@@H](CNC(=O)NC)O[C@H]1n1cnc2c(NC(=O)Nc3ccccc3)ncnc21 (stereo partly specified)
inactive

Same lookup for Cc1cc(OCc2nn(CN3CCN(C)CC3)c(=S)n2/N=C/c2ccc(F)cc2)ccc1Cl , please.
inactive

Try this molecule next: C=C1C(=O)O[C@H]2[C@H]1CC/C(COC(=O)N[C@H](Cc1c[nH]c3ccccc13)C(=O)OC)=C\CC[C@@]1(C)O[C@@H]21
inactive

Okay, and C1=C\CCCCN2CC[C@H]3[C@H](CCCC/C=C\CCCN4C[C@@H](CCCCC/1)C[C@@H]3C4)C2 ?
inactive

Now the same for CCC(=C(c1ccc(OCCN2CCCC2)cc1)c1ccc(OCCN2CCCC2)cc1)c1ccc(Cl)cc1
inactive

Next entry: C=CCN1C(=O)[C@]2(SC1=S)[C@H](c1cccc(Cl)c1)CN(C)[C@]21C(=O)NC2C=CC(Cl)=C[C@H]21 (stereo partly specified)
inactive

Next molecule up: Cc1cn2c(/C=C3\C(=O)N(C)c4ccc(Cl)cc43)c(C)nc2s1
inactive

Sourced from PubChem BioAssay (NCI)
